Can you tell me pIC50 for the items I'm about to list?
Biological target: XIAP-BIR3 (Homo sapiens (Human), UniProt P98170)
Sequence (P98170 241-356): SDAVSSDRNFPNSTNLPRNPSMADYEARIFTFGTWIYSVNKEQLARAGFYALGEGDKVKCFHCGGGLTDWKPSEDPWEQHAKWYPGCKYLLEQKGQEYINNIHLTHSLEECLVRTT
Assay: BIR binding assay (FRET competition), XIAP BIR3
pIC50: −log10 of the molar value.

Exam item: Fill in the blank: the reported pIC50 of C[C@@H]1CN(CC(=O)N2CC(C)(C)c3[nH]c(=O)c(Cc4ccc(F)cc4)cc32)[C@@H](CN2CCO[C@H](COc3ccc(C(C)(C)c4cccc(C(C)(C)c5ccc(OC[C@@H]6CN(C[C@H]7CN[C@H](C)CN7CC(=O)N7CC(C)(C)c8[nH]c(=O)c(Cc9ccc(F)cc9)cc87)CCO6)cc5)c4)cc3)C2)CN1 (stereo in doubt) is ____.
Marked response: 6.30 to 7.50

Exam item: Another compound to look at: C[C@@H]1CN(CC(=O)N2CC(C)(C)c3[nH]c(=O)c(Cc4ccc(F)cc4)cc32)[C@@H](CN2CCN(C(=O)CN(C)CC(=O)N3CCN(C[C@H]4CN[C@H](C)CN4CC(=O)N4CC(C)(C)c5[nH]c(=O)c(Cc6ccc(F)cc6)cc54)[C@H](C)C3)C[C@H]2C)CN1
Marked response: 8.10 to 8.86

###

Target: XIAP-BIR3 (Homo sapiens (Human), UniProt P98170)
Experiment: BIR binding assay (FRET competition), XIAP BIR3
pIC50: −log10 of the molar value.
Give measured pIC50 for each item. Keep answers brief.

Exam item: For the record C[C@@H]1CN(CC(=O)N2CC(C)(C)c3[nH]c(=O)c(Cc4ccc(F)cc4)cc32)[C@@H](CN2CCO[C@H](COc3ccc(C#N)c(OC[C@@H]4CN(C[C@H]5CN[C@H](C)CN5CC(=O)N5CC(C)(C)c6[nH]c(=O)c(Cc7ccc(F)cc7)cc65)CCO4)c3)C2)CN1 , what value of pIC50 is listed for XIAP-BIR3 (Homo sapiens (Human), UniProt P98170)?
Marked response: 7.50 to 7.80

Exam item: # iterate: C[C@@H]1CN(CC(=O)N2CC(C)(C)c3[nH]c(=O)c(Cc4ccc(F)cc4)cc32)[C@@H](CN2CCO[C@H](COc3ccc(Cc4ccc(OC[C@@H]5CN(C[C@H]6CN[C@H](C)CN6CC(=O)N6CC(C)(C)c7[nH]c(=O)c(Cc8ccc(F)cc8)cc76)CCO5)cc4)cc3)C2)CN1
Marked response: 6.30 to 7.50

Exam item: Would you kindly repeat that for C[C@@H]1CN(CC(=O)N2CC(C)(C)c3[nH]c(=O)c(Cc4ccc(F)cc4)cc32)[C@@H](CN2CCO[C@H](COc3ccc(C(C)(C)c4ccc(C(C)(C)c5ccc(OC[C@@H]6CN(C[C@H]7CN[C@H](C)CN7CC(=O)N7CC(C)(C)c8[nH]c(=O)c(Cc9ccc(F)cc9)cc87)CCO6)cc5)cc4)cc3)C2)CN1 ?
Marked response: 6.30 to 7.50

Exam item: Follow-up item: C[C@@H]1CN(CC(=O)N2CC(C)(C)c3[nH]c(=O)c(Cc4ccc(F)cc4)cc32)[C@@H](CN2CCO[C@H](C(=O)NCc3cccc(CNC(=O)[C@@H]4CN(C[C@H]5CN[C@H](C)CN5CC(=O)N5CC(C)(C)c6[nH]c(=O)c(Cc7ccc(F)cc7)cc65)CCO4)c3)C2)CN1
Marked response: 7.50 to 7.80

Exam item: What about C[C@@H]1CN(CC(=O)N2CC(C)(C)c3[nH]c(=O)c(Cc4ccc(F)cc4)cc32)[C@@H](CN2CCO[C@H](COc3cccc(OC[C@@H]4CN(C[C@H]5CN[C@H](C)CN5CC(=O)N5CC(C)(C)c6[nH]c(=O)c(Cc7ccc(F)cc7)cc65)CCO4)c3Br)C2)CN1 ?
Marked response: 7.80 to 8.10

Exam item: Try the compound C[C@@H]1CN(CC(=O)N2CC(C)(C)c3[nH]c(=O)c(Cc4ccc(Cl)cc4O)cc32)[C@@H](CN2CCO[C@H](C(=O)NCc3ccc(CNC(=O)[C@@H]4CN(C[C@H]5CN[C@H](C)CN5CC(=O)N5CC(C)(C)c6[nH]c(=O)c(Cc7ccc(Cl)cc7O)cc65)CCO4)cc3)C2)CN1
Marked response: 7.80 to 8.10

Exam item: And the next one, C[C@@H]1CN(CC(=O)N2CC(C)(C)c3[nH]c(=O)c(Cc4ccc(F)cc4)cc32)[C@@H](CN2CCO[C@H](COCCOCCOC[C@@H]3CN(C[C@H]4CN[C@H](C)CN4CC(=O)N4CC(C)(C)c5[nH]c(=O)c(Cc6ccc(F)cc6)cc54)CCO3)C2)CN1 ?
Marked response: 7.50 to 7.80
